readoutType: IC50

GET IC50 | system: human eIF4E protein (Homo sapiens, UniProt P06730) | item: Cc1nc2c(c(=O)n1CC#Cc1ccc(Cl)cc1-c1ccnc3c(C(=O)NS(C)(=O)=O)csc13)CC(N1CC(F)(F)C1)CC2 (single isomer, unassigned) [Compound 331]
100 to 500 nM

Please report the measured IC50 for Cc1cc(-c2cc(Cl)ccc2OCCn2c(C)nc3c(c2=O)CC(N(C)C2CC2)CC3)c2sccc2n1 (single isomer, unassigned) [Compound 307] tested on human eIF4E protein (Homo sapiens, UniProt P06730).
Sequence (P06730 whole entry): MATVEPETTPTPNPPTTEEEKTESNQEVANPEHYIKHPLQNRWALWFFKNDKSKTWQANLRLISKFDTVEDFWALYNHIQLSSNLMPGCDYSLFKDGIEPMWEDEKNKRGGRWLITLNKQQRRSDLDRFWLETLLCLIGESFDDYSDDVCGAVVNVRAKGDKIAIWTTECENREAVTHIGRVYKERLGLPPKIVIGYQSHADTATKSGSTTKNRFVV
100 to 500 nM

Name the recorded IC50 of Cc1cc(-c2cc(Cl)ccc2OCCn2c(C)nc3c(c2=O)CC(N(C)C2CC2)CC3)c2scc(C(=O)O)c2n1 (single isomer, unassigned) [Compound 335] , assay system human eIF4E protein (Homo sapiens, UniProt P06730).
< 100 nM

Determine reported IC50 for Cc1cc(-c2cc(Cl)ccc2OCCn2c(C)nc3c(c2=O)C[C@@H](N2CCC(c4cc(F)ccc4C(F)(F)F)CC2)CC3)c2scc(C(=O)O)c2n1 (single isomer, unassigned) [Compound 586] ; test system: human eIF4E protein (Homo sapiens, UniProt P06730).
< 100 nM

Recall the reported IC50 of Cc1cc(-c2cc(Cl)ccc2OCCn2c(C)nc3c(c2=O)CC(N2CCC4(CC2)CNCCO4)CC3)c2scc(C(=O)O)c2n1 (single isomer, unassigned) [Compound 528] when tested on human eIF4E protein (Homo sapiens, UniProt P06730).
< 100 nM

---

System: COLO 205 colorectal tumor cells
testDescription: Tumor cell viability inhibition assay (CellTiter-Glo 2.0, 72 hours)
Assay type: cell-based
testSettings: COLO 205 cell viability
What IC50 was measured for each of the following?

Give me measured IC50, please, for this compound: [2H]C1(N2CCC(OC(F)(F)F)CC2)CCc2nc(C)n(CCOc3ccc(Cl)cc3-c3cc(C)nc4c(C(=O)O)csc34)c(=O)c2C1 (single isomer, unassigned)
< 5 µM

Dear colleague, please send me the reported IC50 for COC1CCN(C2CCc3nc(C)n(CCOc4ccc(Cl)cc4-c4cc(C)nc5c(C(=O)NS(C)(=O)=O)csc45)c(=O)c3C2)CC1 (single isomer, unassigned) when you can.
< 5 µM

Give IC50 for the following compound: Cc1cc(-c2cc(Cl)ccc2OCCn2c(C)nc3c(c2=O)CC(N(C)C2(c4ccc(F)cc4)CC2)CC3)c2scc(C(=O)O)c2n1 (single isomer, unassigned)
5 to 20 µM

Tell us which IC50 value is on record for Cc1cc(-c2cc(Cl)ccc2OCCn2c(C)nc3c(c2=O)CC(N(C)CC2(C)COC2)CC3)c2scc(C(=O)O)c2n1 (single isomer, unassigned)
5 to 20 µM

Please list IC50 recorded for the compound Cc1sc2c(-c3cc(Cl)ccc3OCCn3c(C)nc4c(c3=O)CC(N(C)CC3CC(F)(F)C3)CC4)cn(C)c(=O)c2c1C(=O)O (single isomer, unassigned) [Compound 252]
5 to 20 µM

---

Kindly supply the reported pIC50 values for the records listed here.
System: COLO 205 colorectal tumor cells
testDescription: Tumor cell viability inhibition assay (CellTiter-Glo 2.0, 72 hours)
Format: cell-based
testSettings: Homo sapiens, COLO 205, 72 h, COLO 205 cell viability
pIC50: −log10 of the molar value.

Item Cc1cc(-c2cc(Cl)ccc2OCCn2c(C)nc3c(c2=O)C[C@@H](N2CCCC(F)(F)CC2)CC32CC2)c2scc(C(=O)O)c2n1 (single isomer, unassigned) [Compound 544] : provide pIC50
> 5.30

Give the reported pIC50 for this molecule. COc1cc(CN(C)C2CCc3nc(C)n(CCOc4ccc(Cl)cc4-c4cc(C)nc5c(C(=O)O)csc45)c(=O)c3C2)ccn1 (single isomer, unassigned) [Compound 217]
> 5.30

Provide measured pIC50 value, entry: Cc1cc(-c2cc(Cl)ccc2OCCn2c(C)nc3c(c2=O)C[C@H](N2C[C@@H]4CCC(F)(F)[C@@H]4C2)CC3)c2scc(C(=O)O)c2n1 (single isomer, unassigned) [Compound 167]
> 5.30
